Measured Kd, listed per entry for reference.
- TARGET: T1, extracellular domain of rhesus monkey BCMA (rhesus monkey, UniProt F7FFA0 1-53)
- T1 construct: extracellular domain; also called RhBCMA
- T1 sequence (F7FFA0 entry or part of it): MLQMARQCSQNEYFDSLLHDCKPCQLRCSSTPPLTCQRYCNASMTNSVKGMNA
- METHOD_NOTES: Octet BLI; Fab 200 nM
Reply with just the number (in nM).

AB200-R1a-Fab_VH35 (Fab, V domains shown) VH: QVQLVQSGAEVKKPGSSVKVSCKASGGTFSNYWIHWVRQAPGQGLEWMGATFKGHSDTYYNQKFKGRVTITADKSTSTAYMELSSLRSEDTAVYYCARGAIYHGYDVLDNWGQGTLVTVSS VL: DIQMTQSPSSLSASVGDRVTITCSATQDISNYLNWYQQKPGKAPKLLIYFTSNLQSGVPSRFSGSGSGTDFTLTISSLQPEDFATYYCQQYRKLPWTFGQGTKLEIKR = 9.49
AB200-R1a-Fab_VH23 (Fab, V domains shown) VH: QVQLVQSGAEVKKPGSSVKVSCKASGGTFSNYYMHWVRQAPGQGLEWMGATYRGHSDTFYAQKFKGRVTITADKSTSTAYMELSSLRSEDTAVYYCARGAIYHGYDVLDNWGQGTLVTVSS VL: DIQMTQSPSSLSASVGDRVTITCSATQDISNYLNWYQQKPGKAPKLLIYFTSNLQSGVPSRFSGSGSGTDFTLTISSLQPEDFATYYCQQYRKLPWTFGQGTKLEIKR = 19.9

Tell us which Kd value is on record for AB200-R1a-Fab_VH34 (Fab, V domains shown) VH: QVQLVQSGAEVKKPGSSVKVSCKASGGTFSNYYLHWVRQAPGQGLEWMGATYRGHSDTYYNQKFKGRVTITADKSTSTAYMELSSLRSEDTAVYYCARGAIYNGYDVLDNWGQGTLVTVSS VL: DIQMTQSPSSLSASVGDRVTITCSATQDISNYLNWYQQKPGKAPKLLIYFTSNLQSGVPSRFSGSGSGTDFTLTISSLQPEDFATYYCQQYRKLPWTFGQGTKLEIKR
13.2
